# kd Human per entry
target-of-assay: T1, hBCMA (human BCMA) (Homo sapiens, UniProt Q02223)
T1 sequence (Q02223 1-184): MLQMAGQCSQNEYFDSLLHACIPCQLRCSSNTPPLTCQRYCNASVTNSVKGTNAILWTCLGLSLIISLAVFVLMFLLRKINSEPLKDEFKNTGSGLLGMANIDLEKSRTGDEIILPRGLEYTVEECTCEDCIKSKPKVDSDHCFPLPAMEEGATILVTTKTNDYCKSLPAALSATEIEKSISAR
experiment-notes: Kinetics and affinity of hBCMA/human IgG interactions by SPR (Bio-Rad Proteon XPR36)
Assay type: binding
measurement-conditions: human BCMA, 37° C.
Please give a number only; it is taken to be in s⁻¹.

molecule: A02_Rd4_6 nM_C22: anti-BCMA antibody (antibody, V domains shown) VH: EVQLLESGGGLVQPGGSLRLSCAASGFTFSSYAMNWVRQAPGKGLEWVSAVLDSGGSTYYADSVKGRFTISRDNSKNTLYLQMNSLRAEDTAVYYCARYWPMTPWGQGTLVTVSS VL: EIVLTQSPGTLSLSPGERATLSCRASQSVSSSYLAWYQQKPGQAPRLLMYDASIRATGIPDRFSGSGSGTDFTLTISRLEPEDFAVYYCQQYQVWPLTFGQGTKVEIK
kd Human (s⁻¹): 0.000182
--
molecule: COMBO_Rd4_0.6 nM_C04: anti-BCMA antibody (antibody, V domains shown) VH: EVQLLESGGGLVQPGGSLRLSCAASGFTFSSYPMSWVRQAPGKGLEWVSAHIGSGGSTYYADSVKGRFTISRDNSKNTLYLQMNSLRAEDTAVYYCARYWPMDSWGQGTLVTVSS VL: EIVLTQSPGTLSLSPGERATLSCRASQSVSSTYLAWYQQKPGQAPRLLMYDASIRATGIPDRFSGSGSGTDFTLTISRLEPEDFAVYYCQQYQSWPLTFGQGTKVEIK
kd Human (s⁻¹): 0.000158

INPUT: Given COMBO_Rd4_6 nM_C11: anti-BCMA antibody (antibody, V domains shown) VH: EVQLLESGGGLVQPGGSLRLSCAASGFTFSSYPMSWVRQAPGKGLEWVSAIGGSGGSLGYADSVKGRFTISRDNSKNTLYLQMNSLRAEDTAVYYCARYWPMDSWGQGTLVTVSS VL: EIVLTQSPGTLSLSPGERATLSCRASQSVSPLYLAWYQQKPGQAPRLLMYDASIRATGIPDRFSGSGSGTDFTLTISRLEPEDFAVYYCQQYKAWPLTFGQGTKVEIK , respond with its kd Human.
OUTPUT: 0.000124

Value source: patent US11814435B2
